// provenance: the supplement of paper PMC8728848

molecular target: Neu5Ac(a2-6)Gal(b1-4)GlcNAc(b1-2)Man(a1-3)[GlcNAc(b1-2)Man(b1-4)GlcNAc(b1-2)Man(a1-6)]Man(b1-4)GlcNAc(b1-4)GlcNAc; experiment: glycan array binding signal (z-score within array); higher = stronger binding; conditions: glycan notation: IUPAC condensed, linker removed
Shown is part of a subset that was picked to be rich in the strongest signals.
Hi, to clarify the labels: t covers glycan array binding signal (z-score) from -0.2 upward, f covers anything below -0.2.

INSERT INTO assay_data (binder, classname) VALUES
  ('Gal 9 (Homo sapiens), O00182 (protein) MAFSGSQAPYLSPAVPFSGTIQGGLQDGLQITVNGTVLSSSGTRFAVNFQTGFSGNDIAFHFNPRFEDGGYVVCNTRQNGSWGPEERKTHMPFQKGMPFDLCFLVQSSDFKVMVNGILFVQYFHRVPFHRVDTISVNGSVQLSYISFQNPRTVPVQPAFSTVPFSQPVCFPPRPRGRRQKPPGVWPANPAPITQTVIHTVQSAPGQMFSTPAIPPMMYPHPAYPMPFITTILGGLYPSKSILLSGTVLPSAQRFHINLCSGNHIAFHLNPRFDENAVVRNTQIDNSWGSEERSLPRKMPFVRGQSFSVWILCEAHCLKVAVDGQHLFEYYHRLRNLPTINRLEVGGDIQLTHVQT', 't'),
  ('GIINTLQKYYCRVRGGRCAVLSCLPKEEQIGKCSTRGRKCCRRKK [Beta-Defensin 3 (Homo sapiens), P81534]', 'f'),
  ('MCL (Mus musculus), Q9Z2H6 (protein) MWLEESQMKSKGTRHPQLIPCVFAVVSISFLSACFISTCLVTHHYFLRWTRGSVVKLSDYHTRVTCIREEPQPGATGGTWTCCPVSWRAFQSNCYFPLNDNQTWHESERNCSGMSSHLVTINTEAEQNFVTQLLDKRFSYFLGLADENVEGQWQWVDKTPFNPHTVFWEKGESNDFMEEDCVVLVHVHEKWVWNDFPCHFEVRRICKLPGITFNWKPSK', 't'),
  ('DC-SIGN (Canis lupus), XP_853402 (protein) AGLCRPCPWKWELFQESCYFFSQTQNTWKESISACQNLRAQLVIINSTEEQKFLKSWNTRNNQRTWIGLSDHHNEGSWKWVDNTPLQLSFWKEGEPNNHGDEDCVELYSDGWNDNRCSTENFWICKKPSSPCPGPGLNDIFEAQKIEWHE', 'f'),
  ('MD-2 (Homo sapiens) (protein) MLPFLFFSTLFSSIFTEAQKQYWVCNSSDASISYTYCDKMQYPISINVNPCIELKGSKGLLHIFYIPRRDLKQLYFNLYITVNTMNLPKRKEVICRGSDDDYSFCRALKGETVNTTISFSFKGIKFSKGKYKCVVEAISGSPEEMLFCLEFVILHQPNSN', 'f'),
  ('Glycodelin A (Homo sapiens), P09466 (protein) MLCLLLTLGVALVCGVPAMDIPQTKQDLELPKLAGTWHSMAMATNNISLMATLKAPLRVHITSLLPTPEDNLEIVLHRWENNSCVEKKVLGEKTENPKKFKINYTVANEATLLDTDYDNFLFLCLQDTTTPIQSMMCQYLARVLVEDDEIMQGFIRAFRPLPRHLWYLLDLKQMEEPCRF', 't'),
  ('KISKRILTGKK [NK11 (Sus scrofa)]', 't');
